Assay: Clearance in Sprague-Dawley rat at 1.23 mg/kg, iv
Format: ADME, organism-based
Parameters: dose 1.23 mg/kg, route intravenous
Conditions: in vivo
metric: clearance (L/h/kg)
The reply should be a number in L/h/kg, with the unit left off.

Task: Name the recorded clearance for COc1ccc2c(O[C@@H]3C[C@H]4C(=O)N[C@]5(C(=O)NS(=O)(=O)C6CC6)C[C@H]5/C=C\CCCCC[C@H](NC(=O)OC(C)(C)C)C(=O)N4C3)cc(-c3nc(C4CC4)cs3)nc2c1C .
Output: 2.74

---

We begin with a simple list: items and their reported Fa.
Test: Drug absorption in Sprague-Dawley rat portal vein at 5 mg/kg, po
Format: ADME, organism-based
Parameters: dose 5 mg/kg, route oral
Conditions: read-out: Drug absorption
The reply should be a number in %, with the unit left off.

INSERT INTO results (record_smiles, readout_value) VALUES
  ('COc1ccc2c(O[C@@H]3C[C@H]4C(=O)N[C@]5(C(=O)NS(=O)(=O)C6CC6)C[C@H]5/C=C\CCCCC[C@H](NC(=O)C5(OC)CCC5)C(=O)N4C3)cc(-c3nc(C4CC4)cs3)nc2c1C', 16.5);

Task: Name the recorded Fa for CCN(CC)C(=O)N[C@H]1CCCCC/C=C\[C@@H]2C[C@@]2(C(=O)NS(=O)(=O)C2CC2)NC(=O)[C@@H]2C[C@@H](Oc3cc(-c4nc(C5CC5)cs4)nc4c(C)c(OC)ccc34)CN2C1=O .
Output: 19

---

Assay: Inhibition of HCV subtype 1a NS3/4A protease (Ac-DE-Dap(QXL520)-EE-Abu-psi-[COO]-ASC(5-FAMsp)-NH2 as substrate by FRET analysis
Set-up: species or system Hepatitis C virus subtype 1a
metric: pIC50
Kindly note that pIC50 refers to -log10 of the concentration in mol/L and answer with the value alone.

# count of solved cases: 2
INSERT INTO results (record_smiles, readout_value) VALUES
  ('COc1ccc2c(O[C@@H]3C[C@H]4C(=O)N[C@]5(C(=O)NS(=O)(=O)C6CC6)C[C@H]5/C=C\CCCCC[C@H](NC(=O)C5(OC)CCC5)C(=O)N4C3)cc(-c3nc(C4CC4)cs3)nc2c1C', 8.70),
  ('COc1ccc2c(O[C@@H]3C[C@H]4C(=O)N[C@]5(C(=O)NS(=O)(=O)C6CC6)C[C@H]5/C=C\CCCCC[C@H](NC(=O)OC(C)(C)C)C(=O)N4C3)cc(-c3nc(C4CC4)cs3)nc2c1C', 8.20);

Task: Name the recorded pIC50 for COc1ccc2c(O[C@@H]3C[C@H]4C(=O)N[C@]5(C(=O)NS(=O)(=O)C6CC6)C[C@H]5/C=C\CCCCC[C@H](NC(=O)C(C)=O)C(=O)N4C3)cc(-c3nc(C4CC4)cs3)nc2c1C .
Output: 9.10

---

Experiment: Drug absorption in Sprague-Dawley rat portal vein at 6.15 mg/kg, po
Format: ADME, organism-based
Set-up: dose 6.15 mg/kg, route oral
Conditions: read-out: Drug absorption
metric: Fa (%)
The reply should be a number in %, with the unit left off.

Task: Name the recorded Fa for COc1ccc2c(O[C@@H]3C[C@H]4C(=O)N[C@]5(C(=O)NS(=O)(=O)C6CC6)C[C@H]5/C=C\CCCCC[C@H](NC(=O)OC(C)(C)C)C(=O)N4C3)cc(-c3nc(C4CC4)cs3)nc2c1C .
Output: 14.5
